Every entry's value here was drawn from patent US6469004B1.

molecular target: GST-MEK (p45MEK) / GST-MAPK (p44MAP kinase) cascade (APK) (Homo sapiens); experiment: APK IC50 (cascade assay for inhibitors of the MAP kinase pathway); type: biochemical
Sequence (Q02750 whole entry): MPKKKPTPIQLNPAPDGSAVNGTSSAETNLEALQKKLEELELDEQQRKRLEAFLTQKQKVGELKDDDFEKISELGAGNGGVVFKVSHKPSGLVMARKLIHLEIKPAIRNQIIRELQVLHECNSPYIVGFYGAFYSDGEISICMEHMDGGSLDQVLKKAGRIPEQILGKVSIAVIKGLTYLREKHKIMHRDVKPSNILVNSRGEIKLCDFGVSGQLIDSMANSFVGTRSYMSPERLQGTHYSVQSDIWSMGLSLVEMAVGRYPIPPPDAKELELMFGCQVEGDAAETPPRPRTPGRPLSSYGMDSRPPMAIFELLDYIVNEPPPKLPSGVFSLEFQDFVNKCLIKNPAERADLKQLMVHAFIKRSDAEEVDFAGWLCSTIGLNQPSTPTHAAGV
quantity: IC50 (nM)
Quick note: give the figure in nM, leave out the unit.

Problem: # IC50 lookup, item Cc1cc(I)ccc1Nc1c(C(=O)Oc2c(F)c(F)c(F)c(F)c2F)cc2nc[nH]c2c1F [PD 254551]
Solution: 120
